B1: HDV Ribozyme (parent)
chain: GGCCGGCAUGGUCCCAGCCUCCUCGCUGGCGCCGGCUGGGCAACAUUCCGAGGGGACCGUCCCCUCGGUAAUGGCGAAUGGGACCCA

variants of: B1; experiment: self-cleavage, relative activity (ratio to wild type); higher = more cleavage; co-transcriptional
self-cleavage vs 0.3: at or above is Y, below is N.

Problem: State whether the measured self-cleavage reaches 0.3, counting equality as reaching it, for GGCCGGCAUGGUCGCAGCCUCCUCGCUGGCGCCGGCUGGGCAACAUUCCGAGGGAACCGUCCCCUCGGUAAUGGCGAAUGGGACCCA [C14G G55A]
Solution: Y

Problem: State whether the measured self-cleavage reaches 0.3, counting equality as reaching it, for GGCCGGCAUGGUCCCAGCCUCCUCGCUGGCGCCGGCUGGGCAACACUCCGAGGGGACCGUCCCCUCGGCAAUGGCGAAUGGGACCCA [U46C U69C]
Solution: Y

Problem: State whether the measured self-cleavage reaches 0.3, counting equality as reaching it, for GGCCGGCAUUGUCCCAGCCUCCUCGCUGGCGCCGGCUGGGCAACAUACCGAGGGGACCGUCCCCUCGGUAAUGGCGAAUGGGACCCA [G10U U47A]
Solution: Y

Problem: State whether the measured self-cleavage reaches 0.3, counting equality as reaching it, for GGCCGGCAUGGUCCCAGCCUACUCGCUGUCGCCGGCUGGGCAACAUUCCGAGGGGACCGUCCCCUCGGUAAUGGCGAAUGGGACCCA [C21A G29U]
Solution: N

Problem: State whether the measured self-cleavage reaches 0.3, counting equality as reaching it, for GGCCGGCAUGGUCCCAGCCUCCUCGCUGGCGCCGGUUGGGCAAAAUUCCGAGGGGACCGUCCCCUCGGUAAUGGCGAAUGGGACCCA [C36U C44A]
Solution: N

Problem: State whether the measured self-cleavage reaches 0.3, counting equality as reaching it, for GGCCGGCAUGGUCCCAGCCUCCUCGCCGGCGCCGGCUGGGCAACAUUCCGAGGGGACCGUCCACUCGGUAAUGGCGAAUGGGACCCA [U27C C63A]
Solution: Y

Problem: State whether the measured self-cleavage reaches 0.3, counting equality as reaching it, for GGCCGGCAUGGUCCCAGCCUCCGCGCUGGCGCCGGCUGGGCAACAUUCCGAGGGGACCGUCCCUUCGGUAAUGGCGAAUGGGACCCA [U23G C64U]
Solution: Y

Problem: State whether the measured self-cleavage reaches 0.3, counting equality as reaching it, for GGCCGGCAUGGUCCCAGCCUCUUCGCUGGCGCCGGCUGGGCAACAUUCCGAGGGGACCGUCCCCUCGGUAAUGACGAAUGGGACCCA [C22U G74A]
Solution: N

Problem: State whether the measured self-cleavage reaches 0.3, counting equality as reaching it, for GGCCGGCAUGGUCCCAGCGUCCUCGCUGGCGCCGGCUGGGUAACAUUCCGAGGGGACCGUCCCCUCGGUAAUGGCGAAUGGGACCCA [C19G C41U]
Solution: N

Problem: State whether the measured self-cleavage reaches 0.3, counting equality as reaching it, for GGCCGGCAUGGUCCCAGCCUCCUCGCUGGCGCCGGCUGUGCAACAUUCCGAGGGGACCGUCCCCUCGGUAAUGGCGAAUGGGACACA [G39U C85A]
Solution: Y

Problem: State whether the measured self-cleavage reaches 0.3, counting equality as reaching it, for GGCCGGCAUGGUCCCAGCCUGCCCGCUGGCGCCGGCUGGGCAACAUUCCGAGGGGACCGUCCCCUCGGUAAUGGCGAAUGGGACCCA [C21G U23C]
Solution: N

Problem: State whether the measured self-cleavage reaches 0.3, counting equality as reaching it, for GGCCGGCAUGGUCCCAGCCUCCUCGCUGGCGCCGGCUGGACAACAUUCCGAGGGGACCGUCCCCUCGGUAAUGGCGAAUGCGACCCA [G40A G81C]
Solution: N

Problem: State whether the measured self-cleavage reaches 0.3, counting equality as reaching it, for GGCCGGCAUGGUCCCAGCCUCCUCGCUGGCGCCGGCUGGGCAACAUUCCGAGGGGACCGUCCCCACGGAAAUGGCGAAUGGGACCCA [U65A U69A]
Solution: Y

Problem: State whether the measured self-cleavage reaches 0.3, counting equality as reaching it, for GGCCGGCAUGGUCCCAGCCUCCUCGCUGGCGCCGGCCGGGCAACAUUCCGAGGGGACCGUCCCCUCGGUAAUUGCGAAUGGGACCCA [U37C G73U]
Solution: N

Problem: State whether the measured self-cleavage reaches 0.3, counting equality as reaching it, for GGCGGGCAUGGUCCCAGCCUCCUCGCUGGCGCCGGCUGGGCAACAUUCCGAGGGGACCGUCCACUCGGUAAUGGCGAAUGGGACCCA [C4G C63A]
Solution: N

Problem: State whether the measured self-cleavage reaches 0.3, counting equality as reaching it, for GGCCGGCAUGGUCCCAGCCUCCUCGCUGGCGCCGGCUGGGCUACAUUCCGAGGGGACCGUCGCCUCGGUAAUGGCGAAUGGGACCCA [A42U C62G]
Solution: Y

Problem: State whether the measured self-cleavage reaches 0.3, counting equality as reaching it, for GGCCGGCAUGGUCCCAGCCUCCUCGCUGGCGCCGGCUGGGCAACAUUGCGAGGGGACCGUCCCCUCUGUAAUGGCGAAUGGGACCCA [C48G G67U]
Solution: Y

Problem: State whether the measured self-cleavage reaches 0.3, counting equality as reaching it, for GGCCGGCAUGGUCCCAGCCUCCUCUAUGGCGCCGGCUGGGCAACAUUCCGAGGGGACCGUCCCCUCGGUAAUGGCGAAUGGGACCCA [G25U C26A]
Solution: N

Problem: State whether the measured self-cleavage reaches 0.3, counting equality as reaching it, for GGCCGGCAUGGUCCCAGCCUCCUCGCUGGCGCCGGCUGGGCAACAUUCCGGGGGGACCGUCGCCUCGGUAAUGGCGAAUGGGACCCA [A51G C62G]
Solution: Y

Problem: State whether the measured self-cleavage reaches 0.3, counting equality as reaching it, for GGCCGGCAUGGUCCCAGCCUCCUCGCUGGCGCCGGCUGUGCAACAUUCCGAGGGGACCGUCCUCUCGGUAAUGGCGAAUGGGACCCA [G39U C63U]
Solution: Y

Problem: State whether the measured self-cleavage reaches 0.3, counting equality as reaching it, for GGCCGGCAUGGUCCCAGCCUCCCCGCUGGCGCCUGCUGGGCAACAUUCCGAGGGGACCGUCCCCUCGGUAAUGGCGAAUGGGACCCA [U23C G34U]
Solution: N

Problem: State whether the measured self-cleavage reaches 0.3, counting equality as reaching it, for GGCCGGCAUGGUCCCAGCCUCCUCGCUGGCGCCGGCUGGGCAACAUUCCGAGGGGGCCGUCCCCUCGGUAAUGGCAAAUGGGACCCA [A56G G76A]
Solution: Y

Problem: State whether the measured self-cleavage reaches 0.3, counting equality as reaching it, for GGCCGGCAUGGUCCCAGCCUCCUCGCUGGCGCCGGCUGGGCAACAUUCCGAGGGGCCCGUCCCCUCGGUAAUGGCGAAUGGGCCCCA [A56C A83C]
Solution: Y

Problem: State whether the measured self-cleavage reaches 0.3, counting equality as reaching it, for GGCGGGCAUGGUCCCAGCCUCCUCGCUGGCGCCGGCUGGGCAACAUUCCGAGGGGACCGUCCCCUCGGUAAUGGCGAAUGGGAGCCA [C4G C84G]
Solution: N

Problem: State whether the measured self-cleavage reaches 0.3, counting equality as reaching it, for GGCCGGCAUGGUCCCAGCCUCCUCGCUGGCGCCGGCUGGGCAGCAUUCCGAGGGGACCGUCCCCUCGGUAAUGGCGAAUGGCACCCA [A43G G82C]
Solution: N

Problem: State whether the measured self-cleavage reaches 0.3, counting equality as reaching it, for GGCGGGCAUGGGCCCAGCCUCCUCGCUGGCGCCGGCUGGGCAACAUUCCGAGGGGACCGUCCCCUCGGUAAUGGCGAAUGGGACCCA [C4G U12G]
Solution: N

Problem: State whether the measured self-cleavage reaches 0.3, counting equality as reaching it, for GGCCGGCAUUGUCCCAGCCUCCUCGCUGGCGCCGGCUGGGCAACAUUCCGAGGGGACCGUCCCCUCGGUAAUGGCGAAUGGGUCCCA [G10U A83U]
Solution: N

Problem: State whether the measured self-cleavage reaches 0.3, counting equality as reaching it, for GGCCGGCAUGGUCCCAGCCUCCUCGCUGGCGCCGGCUGGGCAACAGUCCGAGGGGACCGACCCCUCGGUAAUGGCGAAUGGGACCCA [U46G U60A]
Solution: Y

Problem: State whether the measured self-cleavage reaches 0.3, counting equality as reaching it, for GGCCGGCAUGGUCCCAGCCUCCUCGCUGGCGCCGGCUGGGCAACAUUCCGAGGGGACCGGCCCCUCGGUAAUGGCGAAUGGGUCCCA [U60G A83U]
Solution: Y

Problem: State whether the measured self-cleavage reaches 0.3, counting equality as reaching it, for GGCCGUCAAGGUCCCAGCCUCCUCGCUGGCGCCGGCUGGGCAACAUUCCGAGGGGACCGUCCCCUCGGUAAUGGCGAAUGGGACCCA [G6U U9A]
Solution: Y

Problem: State whether the measured self-cleavage reaches 0.3, counting equality as reaching it, for GGCCGGCAUGGUCCCACCCUCCUCGCUGGCGCCGGCUGGGCAACAUUCCGAGGGGACCGUCCCCUUGGUAAUGGCGAAUGGGACCCA [G17C C66U]
Solution: N

Problem: State whether the measured self-cleavage reaches 0.3, counting equality as reaching it, for GGCCGGCAUGGUCCCAGCCUCCUCGCUGGCGCCGGCUGGGCAACAUUCCGAGGGGACCGUCCCCUCUGUAAUGGGGAAUGGGACCCA [G67U C75G]
Solution: N

Problem: State whether the measured self-cleavage reaches 0.3, counting equality as reaching it, for GGCCGGCAUGGUCCCAGCAUCCUCGCUGGCGCCGGCUGGGAAACAUUCCGAGGGGACCGUCCCCUCGGUAAUGGCGAAUGGGACCCA [C19A C41A]
Solution: N

Problem: State whether the measured self-cleavage reaches 0.3, counting equality as reaching it, for GGCCGGCAUGGUCCCAGCCUCCUCGCUGGCGCCGGCUGGGCAACAUUCCGAGGGGACCGUCCCCUCGGUAAUGGCAAAUGGAACCCA [G76A G82A]
Solution: Y

Problem: State whether the measured self-cleavage reaches 0.3, counting equality as reaching it, for GGCCGGCAUGGACCCAGCCUCCUCGCCGGCGCCGGCUGGGCAACAUUCCGAGGGGACCGUCCCCUCGGUAAUGGCGAAUGGGACCCA [U12A U27C]
Solution: Y

Problem: State whether the measured self-cleavage reaches 0.3, counting equality as reaching it, for GGCCGGCAUGCUCCCAGCCUCCUCGCUGGCGCCGGCUGGGCAACAUUCCGAGGAGACCGUCCCCUCGGUAAUGGCGAAUGGGACCCA [G11C G54A]
Solution: N

Problem: State whether the measured self-cleavage reaches 0.3, counting equality as reaching it, for GGCCGGCAUGGUCCCAGCCUCCUCCCUGGCGCCGGCUGGGCAACAUUCCGAGGGGACCGUCCCCUCGGUAAUGGCGCAUGGGACCCA [G25C A77C]
Solution: N

Problem: State whether the measured self-cleavage reaches 0.3, counting equality as reaching it, for GGCCGGCAUGGUCGCAGCCUCCUCGCUGGCGCCGGCUGGGCAACCUUCCGAGGGGACCGUCCCCUCGGUAAUGGCGAAUGGGACCCA [C14G A45C]
Solution: Y

Problem: State whether the measured self-cleavage reaches 0.3, counting equality as reaching it, for GGCCGGCAUGGUCCCAGCCUCCUCGCUGGCGCCGGCUGGGCAACAUUCCGAGGGGACCGUCCCCUCGUUAAUGGGGAAUGGGACCCA [G68U C75G]
Solution: N

Problem: State whether the measured self-cleavage reaches 0.3, counting equality as reaching it, for GCCCGGCAUGGUCCCAGCCUCCUCGCUGGCGCCGGCUGGGCAACAUUCCGAGGGGACCGUCCCCUCGGUAAUGGCGAAUCGGACCCA [G2C G80C]
Solution: N

Problem: State whether the measured self-cleavage reaches 0.3, counting equality as reaching it, for GGCCGGCAUGGUCCCAGCCUCCUCGCUGGCGCCGGCUGGGCUACAUUCCGAGGCGACCGUCCCCUCGGUAAUGGCGAAUGGGACCCA [A42U G54C]
Solution: Y

Problem: State whether the measured self-cleavage reaches 0.3, counting equality as reaching it, for GGCCGGCAUGGUCCCAGCCUCAUCGCUGGCGCCGGCUGGGCAACAUUCCGAGGGGACCGUCCCCUCGGUGAUGGCGAAUGGGACCCA [C22A A70G]
Solution: N

Problem: State whether the measured self-cleavage reaches 0.3, counting equality as reaching it, for GGCCGGCAUGGUCCCAGCCUCCUCGCUGGCGCCGGCUGGGAAACAGUCCGAGGGGACCGUCCCCUCGGUAAUGGCGAAUGGGACCCA [C41A U46G]
Solution: Y

Problem: State whether the measured self-cleavage reaches 0.3, counting equality as reaching it, for GGCCGGCAUGGUCACAGCCUCCUCGCUGGCGCCGGCUGGGCAACAUUCCGAGGGGACCGUCCCCUCGGUAAUGGCGAAGGGGACCCA [C14A U79G]
Solution: Y

Problem: State whether the measured self-cleavage reaches 0.3, counting equality as reaching it, for GGCCGGCAUGGUCCCAGCCUCCUCGCUGGCGCCGGCUGAGCAACAUUCCGAGGGGACCGCCCCCUCGGUAAUGGCGAAUGGGACCCA [G39A U60C]
Solution: Y
